# Experimental target: human androgen receptor (Homo sapiens)
# Construct: expressed in transfected cells; host or cells: HEK293
# Sequence (P10275 whole entry): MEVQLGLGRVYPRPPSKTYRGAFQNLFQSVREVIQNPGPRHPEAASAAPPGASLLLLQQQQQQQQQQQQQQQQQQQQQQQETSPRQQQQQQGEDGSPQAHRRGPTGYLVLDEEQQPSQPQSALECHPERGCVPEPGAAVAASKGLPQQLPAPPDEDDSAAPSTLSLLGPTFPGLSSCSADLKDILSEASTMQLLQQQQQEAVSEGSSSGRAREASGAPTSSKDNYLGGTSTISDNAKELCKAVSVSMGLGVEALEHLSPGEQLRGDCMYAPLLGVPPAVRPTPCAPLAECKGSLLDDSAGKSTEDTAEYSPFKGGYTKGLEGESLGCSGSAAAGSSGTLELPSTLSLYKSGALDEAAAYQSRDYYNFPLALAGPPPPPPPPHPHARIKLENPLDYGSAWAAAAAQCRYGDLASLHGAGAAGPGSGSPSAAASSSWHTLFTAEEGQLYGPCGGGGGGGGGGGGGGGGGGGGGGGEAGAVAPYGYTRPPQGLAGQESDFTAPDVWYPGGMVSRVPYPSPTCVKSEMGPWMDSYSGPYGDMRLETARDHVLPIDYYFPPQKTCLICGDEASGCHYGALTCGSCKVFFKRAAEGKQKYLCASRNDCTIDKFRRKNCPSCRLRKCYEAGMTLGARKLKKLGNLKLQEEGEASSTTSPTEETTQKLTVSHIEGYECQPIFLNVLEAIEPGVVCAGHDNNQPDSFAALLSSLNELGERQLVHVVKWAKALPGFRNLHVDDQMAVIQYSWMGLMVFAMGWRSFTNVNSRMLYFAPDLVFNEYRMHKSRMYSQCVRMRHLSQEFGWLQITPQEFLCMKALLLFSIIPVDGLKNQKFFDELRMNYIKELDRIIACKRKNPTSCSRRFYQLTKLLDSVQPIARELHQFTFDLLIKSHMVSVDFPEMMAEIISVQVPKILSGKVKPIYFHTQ
# Protocol notes: Reporter assay of an androgen receptor responsive sequence (luciferase, transiently transfected HEK293 cells)
# Type: cell-based
# Setup conditions: 24 hours incubation, relative to activity of 100 nM DHT, read-out: AR transcriptive activity (pEC50) (converted)
Parameter: EC50

Query :: What measured EC50 is associated with Cc1sc(N(Cc2ccc(C(F)(F)F)cc2)c2ccc(C#N)cc2)nc1C(=O)NS(C)(=O)=O [Compound 46] on human androgen receptor (Homo sapiens)?
Result :: 31.6 nM

Query :: Next compound: Cc1sc(N(Cc2ccc(Br)cc2C#N)c2ccc(C#N)cc2)nc1C(=O)NS(C)(=O)=O [Example 182]
Result :: > 10000 nM

Query :: Next compound: CS(=O)(=O)NC(=O)c1nc(N(Cc2ccccc2OC(F)F)c2ccc(C#N)cc2)sc1Cl [Example 275]
Result :: 316 nM

Query :: Next compound: Cc1sc(N(Cc2ccc(C(F)F)cc2F)c2ccc(C#N)cc2)nc1C(=O)NS(C)(=O)=O [Compound 156]
Result :: 63.1 nM

Query :: Next compound: CCc1oc(N(Cc2ccc(OC(F)(F)F)cc2)c2ccc(C#N)cc2)nc1C(=O)NS(C)(=O)=O [Compound 632]
Result :: 1000 nM

Query :: Next compound: Cc1sc(N(Cc2ncc(Cl)cc2Cl)c2ccc(C#N)cc2)nc1C(=O)NS(C)(=O)=O [Example 180]
Result :: 501 nM

Query :: Next compound: Cc1sc(N(CCc2ccccc2)Cc2ccccc2)nc1C(=O)NS(C)(=O)=O [Example 294]
Result :: 1000 nM

Query :: Next compound: CCc1oc(N(Cc2ccc(C(F)(F)F)cn2)c2ccc(C#N)cc2)nc1C(=O)NS(C)(=O)=O [Compound 638]
Result :: 3160 nM

Query :: Next compound: COCCCS(=O)(=O)NC(=O)c1nc(N(CCc2ccc(OC(F)(F)F)cc2)Cc2ccc(C(F)(F)F)nc2)oc1C [Compound 565]
Result :: 2000 nM

Query :: Next compound: Cc1sc(N(Cc2ccccc2SC(F)F)c2ccc(C#N)cc2)nc1C(=O)NS(C)(=O)=O [Compound 79]
Result :: 50.1 nM

Query :: Next compound: COCCCS(=O)(=O)NC(=O)c1nc(N(CCc2ccc(C#N)cc2)Cc2ccc(F)cc2Cl)oc1C [Compound 558]
Result :: > 10000 nM

Query :: Next compound: Cc1sc(N(Cc2ccc(Cl)cc2)Cc2csc3cc(C(F)(F)F)ccc23)nc1C(=O)NS(C)(=O)=O [Compound 677]
Result :: > 10000 nM

Query :: Next compound: Cc1sc(N(Cc2ccc(F)c3cccnc23)c2ccc(C#N)cc2)nc1C(=O)NS(C)(=O)=O [Example 175]
Result :: 126 nM

Query :: Next compound: Cc1sc(N(Cc2ccccc2)c2ccc(C#N)cc2F)nc1C(=O)NS(C)(=O)=O [Compound 487]
Result :: 158 nM

Query :: Next compound: Cc1sc(N(CCC2CCCCC2)Cc2ccc(Cl)cc2)nc1C(=O)NS(=O)(=O)Cc1cccc(F)c1 [Compound 731]
Result :: > 10000 nM

Query :: Next compound: COCCCS(=O)(=O)NC(=O)c1nc(N(Cc2ncc(Br)cc2F)c2ccc(C#N)cc2)sc1C [Compound 535]
Result :: 316 nM
